Each record here notes measured GFP response relative to DMSO.
Assay: yeast TOR pathway reporter LAP4-GFP change – cell-based, cherry picks, flow cytometry, mother/daughter gates, confirmation (AID 2271);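 further: ratio of sample to DMSO plate mean so 100% equals DMSO level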
Conditions: S. cerevisiae LAP4-GFP strain, 3 h, at 10 µM, stronger effect = higher value, 100 means same as DMSO control
Hi! Could you send only the number? It should be in %, unit omitted.

OC(CCN1CCCCC1)(c1ccccc1)c1ccccc1	95
C[C@]12CC[C@@H]3c4ccc(O)cc4C(=O)C[C@H]3[C@@H]1CC[C@@H]2O	90.2
C1COC(NC(C2CC2)C2CC2)=N1	95.4
C[n+]1ccccc1/C=N/O	98.7

What value of GFP response relative to DMSO has been reported for the following compound? O=[N+]([O-])c1ccc(O)c2ncccc12
274

// next record CCN(CC)c1ccc2cc(-c3nc(-c4ccc(OC)cc4)cs3)c(=O)oc2c1
138

Same lookup for CN(C)c1ccc(/C=C/C(=O)c2cccc(Br)c2)cc1 , please.
99.5

Try this compound next: Cn1c(=O)c(C(=O)NCCO)c(O)c2ccccc21
87.6

Same thing, different compound: COc1ccc(C(=O)NCC2OCCc3ccccc32)cc1 (centres undefined)
103

One more compound: CS(=O)(=O)Nc1cccc(C(=O)CC2(O)C(=O)Nc3ccc(Br)cc32)c1 (centres undefined)
98.2

* * *

Measured double positive events accompanies every entry in the list below.
Experiment: reduced mouse 2C T cell binding to pMHC/ICAM-1 vesicles – MLPCN validation set, flow cytometry, LFA-1/ICAM-1 modulator project, pilot screen (AID 2523)
Conditions: 2C mouse CD8+ T cells, at 7 µM, stronger effect = lower value; measured here: CD8+/vesicle+ event percentage
Numeric answer only, unit % assumed.

Answered examples (2):
Cc1cc(O)c2/c(=N\N)c(-c3csc(C)n3)coc2c1	56.7
COc1ccccc1CCn1cnc2c3cc(C)ccc3n(C)c2c1=O	56.6

Reported double positive events for COc1cccc2c(=O)c(C/C=C(/C)Cl)c(C)[nH]c12 : what is it?
65.6

* * *

Listed here are compounds together with their documented GFP response, % of DMSO.
Assay: yeast AGP1-GFP level changes, GLN3 branch – cell-based, multiplex flow cytometry, S. cerevisiae, primary screen (AID 1887);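 further: AGP1-GFP fusion strain of S. cerevisiae within a five-strain barcoded multiplex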
Conditions: 3 h, at 10 µM, stronger effect = higher value
Results filed as inconclusive are left out. Calls of active or inactive are those of the source.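 The calls were made as follows: active = GFP signal above the screen-wide mean plus 3 SD, that is over about 124.5% of the solvent control; inconclusive = no reading because the compound's own fluorescence disturbed strain identification; inactive = the rest.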

Some compounds with known GFP response, % of DMSO results, for comparison:
OCC1CCN(Cc2cn(Cc3ccccc3)nc2-c2cc3ccccc3o2)CC1	102% (inactive)
CC(C)(C)C(=O)NCCCNc1ccc([N+](=O)[O-])cc1	104% (inactive)
CCc1cc2c(C)cc(=O)oc2cc1OC(=O)C1CCCN1C(=O)OC(C)(C)C (stereo unspecified)	96.3% (inactive)
CCOc1ccc2ccccc2c1C(=O)N[C@@H]1C(=O)N2[C@@H]1SC(C)(C)[C@@H]2C(=O)O	97.5% (inactive)
CCOC(=O)c1cc2c(nc1N)CC(C)(CC)OC2 (stereo unspecified)	100% (inactive)

Let us move to another entry and its GFP response, % of DMSO.
Need GFP response, % of DMSO of Cc1ccc(NC(=O)CSc2nc(O)c(Cc3ccccc3)c(=O)n2-c2ccccc2)cc1 , thanks.
102% (inactive)

* * *

Molecular target: Beta-adrenergic receptor kinase 1 (Homo sapiens) (UniProt P25098)
Sequence (P25098 whole entry, looked up): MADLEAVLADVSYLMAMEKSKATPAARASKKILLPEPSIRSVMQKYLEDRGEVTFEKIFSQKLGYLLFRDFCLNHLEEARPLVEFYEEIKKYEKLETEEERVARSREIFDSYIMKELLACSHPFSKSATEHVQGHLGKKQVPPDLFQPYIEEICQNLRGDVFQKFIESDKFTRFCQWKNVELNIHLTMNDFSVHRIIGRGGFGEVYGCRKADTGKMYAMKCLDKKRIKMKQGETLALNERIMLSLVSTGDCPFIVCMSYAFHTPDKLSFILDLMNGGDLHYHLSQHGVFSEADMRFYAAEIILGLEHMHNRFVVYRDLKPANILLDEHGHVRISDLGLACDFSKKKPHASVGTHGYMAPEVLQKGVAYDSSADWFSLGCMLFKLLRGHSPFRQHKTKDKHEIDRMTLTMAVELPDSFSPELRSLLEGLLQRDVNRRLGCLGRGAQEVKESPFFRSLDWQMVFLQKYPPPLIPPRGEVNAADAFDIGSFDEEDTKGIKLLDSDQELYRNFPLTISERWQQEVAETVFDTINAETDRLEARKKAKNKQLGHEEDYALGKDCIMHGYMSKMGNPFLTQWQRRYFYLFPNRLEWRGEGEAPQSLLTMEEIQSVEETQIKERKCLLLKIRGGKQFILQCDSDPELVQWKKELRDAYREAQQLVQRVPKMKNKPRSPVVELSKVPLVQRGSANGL
Test: GRK2 binders displacing RNA aptamer, biochemical, validation, human GRK2, bead flow cytometry (AID 488806)
Conditions: bead-bound GRK2, FAM-aptamer displacement, at 10 µM, stronger effect = higher value
measurement.name: aptamer binding inhibition (%)
Give the number; % is assumed, so skip it.

S=C(NCCOCCOCCNC(=S)Nc1ccccc1)Nc1ccccc1	3
COc1cc(CO)ccc1OCc1nnnn1-c1ccc(C)cc1	-1
O[C@H]1COC2C1OC[C@@H]2O (stereo not given in full)	0
CCn1cc(C(=O)O)c(=O)c2ccc(C)nc21	-1
O=c1[nH]c(=O)n([C@H]2C[C@H](O)[C@@H](CO)O2)cc1C(F)(F)F	1

Fill in the recorded aptamer binding inhibition for this compound, with Beta-adrenergic receptor kinase 1 (Homo sapiens) (UniProt P25098) as test system: CCCCOc1ccc(CC(=O)NO)cc1
-2

What do you have for O=c1nc2sc3ccccc3n2c(=O)n1-c1ccc(Cl)cc1 ?
-3

Ok, now O=C(Cc1ccccc1)NCC(=O)OCC(=O)c1ccccc1Cl
4

Same question, CCC(CO)NCCNC(CC)CO (stereo not given) this time
-1

Now try NC[C@H]1O[C@H](O[C@H]2[C@H](O)[C@@H](O[C@H]3O[C@H](CO)[C@@H](O)[C@H](N)[C@H]3O)[C@H](N)C[C@@H]2N)[C@H](N)C[C@@H]1O .
3

Another: OCCC1CN(Cc2nc(-c3ccccc3)cs2)CCN1Cc1ccc(F)cc1 (stereo not given)
0

Record: O=C(NC(=S)Nc1nc(-c2ccccc2)cs1)c1ccco1
3

Likewise for O=C(OCC(O)C(O)COC(=O)c1ccccc1)c1ccccc1 (stereo not given) ?
-1

And what about the compound COc1ccc(C2=C(CN(C)C)C(c3ccccc3)c3ccccc3O2)cc1 (stereo not given) ?
-2

Follow-up entry: NS(=O)(=O)c1cc2c(cc1Cl)NC(C(Cl)Cl)NS2(=O)=O (stereo not given)
4

How about CCc1c(C(C)=O)oc2ccc3c(C)cc(=O)oc3c12 ?
1

Now consider CC1(C)Cc2ccccc2-c2n[nH]c(=S)n21 and answer again.
2

Now this one: COC(=O)[C@H]1[C@H]2C[C@@H]3c4[nH]c5cc(OC)ccc5c4CCN3C[C@H]2C[C@@H](OC(=O)c2ccc(N)cc2)[C@@H]1OC
3

Would you kindly repeat that for Cc1cc(=O)oc2cc(OC(C)C(=O)NCC3CCCO3)ccc12 (stereo not given) ?
3

O=C(NC1CCCCC1)N1CCc2[nH]c3ccccc3c2C1 , same question.
3

Would you kindly repeat that for CN(CCO)CC(O)Cn1cnc2c1c(=O)n(C)c(=O)n2C (stereo not given) (tested in a mixture with another compound) ?
-1

Cool, now O=C(N/C(=C/C=C\c1ccccc1)C(=O)N1CCOCC1)c1ccc(Br)cc1
1
